Assign solubility (mole fraction) to each entry below.
Settings: in ethyl acetate, 278.15 K
// print number alone

Could you tell me which solubility (mole fraction) is on file for CCOC(=O)[C@H](CCc1ccccc1)N[C@@H](C)C(=O)N1CCC[C@H]1C(=O)O.O=C(O)/C=C\C(=O)O ? 0.00171

Could you tell me which solubility (mole fraction) is on file for CCOC(=O)[C@H](CCc1ccccc1)N[C@@H](C)C(=O)O ? 0.0092

---

Conditions: in n-octanol, 283.15 K
result.type: solubility (mole fraction)
// print number alone

Could you tell me which solubility (mole fraction) is on file for CCOC(=O)[C@H](CCc1ccccc1)N[C@@H](C)C(=O)O ? 0.00233

Could you tell me which solubility (mole fraction) is on file for CCOC(=O)[C@H](CCc1ccccc1)N[C@@H](C)C(=O)N1CCC[C@H]1C(=O)O.O=C(O)/C=C\C(=O)O ? 0.000509
